- protocolDetails: Drug uptake in fasted intralipid-challenged Sprague-Dawley rat portal vein at 5 mg/kg, po administered 30 mins prior to intralipid-challenge measured at 17 hrs by LC/MS analysis
- Format: ADME, organism-based
- Set-up: dose 5 mg/kg, route oral
- measurementContext: read-out: Drug uptake
endpoint: concentration at 17 h (nM)
State just the number; it will be interpreted in nM.

input: // concentration at 17 h lookup, key: Cc1cc(CCC(=O)O)cc(C)c1-c1nc2ccc(C(=O)Nc3ccc(C(C)(C)C)cc3)cc2[nH]1
output: 5

* * *

- protocolDetails: Lipophilicity, log D of the compound by potentiometric titration method at pH 6.8
- Format: physicochemical
- measurementContext: buffer
endpoint: logD

input: What measured logD goes with Cc1cc(CCC(=O)O)cc(C)c1-c1nc2ccc(C(=O)Nc3ccc(C(C)(C)C)cc3)cc2[nH]1 ?
output: 2.6
